# study-target: hTREM2 (Homo sapiens, UniProt Q9NZC2)
# Sequence (Q9NZC2 19-230): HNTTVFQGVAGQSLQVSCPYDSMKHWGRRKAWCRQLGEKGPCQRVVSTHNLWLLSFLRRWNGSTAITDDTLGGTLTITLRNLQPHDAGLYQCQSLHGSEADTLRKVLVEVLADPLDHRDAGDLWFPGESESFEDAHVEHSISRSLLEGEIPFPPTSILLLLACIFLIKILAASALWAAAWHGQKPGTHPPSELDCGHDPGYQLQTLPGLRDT
# Sequence (O43914 22-113 partner): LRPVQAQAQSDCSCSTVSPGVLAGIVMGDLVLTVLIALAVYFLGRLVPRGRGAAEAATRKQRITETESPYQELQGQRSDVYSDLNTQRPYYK
# protocol-notes: Phospho-Syk AlphaScreen/AlphaLISA assay in TREM2 and DAP12 overexpressing HEK293 cells (Example A1)
# Assay type: cell-based
# Parameters: expressed in transfected cells
# conditions-used: HEK293 cells
experimental-endpoint: Emax

Examples from the recorded data:
Cc1nc2cc(N3CCO[C@@H](c4cnn(C)c4)C3)cc(-c3ccc(Cl)cc3F)c2c(=O)n1C = +++ (Emax>200 and ≤300)
Cc1ncc([C@@H]2CN(c3cc4nc(C)n(C)c(=O)c4c(-c4ccc(Cl)cc4F)n3)CCO2)cn1 (single isomer, unassigned) = ++++ (Emax>300)
Cc1nc2cc(N3CCO[C@H](c4cnn(C)c4)C3)cc(-c3ccc(Cl)cc3F)c2c(=O)n1C [Example 4] = +++ (Emax>200 and ≤300)
Cc1nc2cc(N3CCO[C@H](c4cnn(C)c4)C3)nc(-c3ccc(Cl)cc3)c2c(=O)n1C [Example 6] = ++ (Emax>100 and ≤200)
Cc1nn(C)cc1C1CN(c2cc3nc(C)n(C)c(=O)c3c(-c3ccc(Cl)cc3F)n2)CCO1 (stereo not drawn) = +++ (Emax>200 and ≤300)
Cc1nc2cc(N3CCC[C@@H](C4CNC4)C3)nc(-c3ccc(Cl)cc3F)c2c(=O)n1C = ++ (Emax>100 and ≤200)
Cc1nc2cc(N3CCC(C(F)F)C3)nc(-c3ccc(Cl)cc3F)c2c(=O)n1C (stereo not drawn) = +++ (Emax>200 and ≤300)
Cc1nc2cc(N3CCO[C@H]([C@@H]4CCO4)C3)nc(-c3ccc(Cl)cc3F)c2c(=O)n1C [Example 269] = ++++ (Emax>300)
Cc1nc2cc(N3CCO[C@@H](c4cnn(C5CCC5)c4)C3)nc(-c3ccc(Cl)cc3F)c2c(=O)n1C = ++++ (Emax>300)
Cc1nc2cc(N3CCO[C@H](c4cnn(C)c4)C3)nc(-c3ncc(Cl)cc3F)c2c(=O)n1C [Example 217] = +++ (Emax>200 and ≤300)

Challenge: Consider the compound Cc1nc2cc(N3CC[C@H](c4cccnc4)C3)nc(-c3ccc(Cl)cc3F)c2c(=O)n1C and give its measured Emax.
Response given: ++++ (Emax>300)

Challenge: Check CCn1c(C)nc2cc(N3CCO[C@@H](c4ccnc(C)c4)C3)nc(-c3ccc(F)cc3F)c2c1=O too.
Response given: +++ (Emax>200 and ≤300)

Challenge: Check Cc1c([C@H]2CN(c3cc4nc(C)n(C)c(=O)c4c(-c4ccc(Cl)cc4F)n3)CCO2)cnn1C [Example 262] too.
Response given: +++ (Emax>200 and ≤300)

Challenge: Check Cc1nc2cc(N3CCC[C@H](N4CCC4)C3)nc(-c3ccc(Cl)cc3F)c2c(=O)n1C too.
Response given: ++ (Emax>100 and ≤200)

Challenge: Check Cc1nc2cc(N3CCO[C@@H](c4cn[nH]c4)C3)nc(-c3ccc(Cl)cc3F)c2c(=O)n1C too.
Response given: ++++ (Emax>300)

Data origin: patent US20250388574A1
